// data source = ChEMBL document CHEMBL1156523

- METHOD: Inhibition of Cryptosporidium parvum recombinant Galactose/N-acetylgalactosamine-specific lectin binding to Caco2A cells
- Format: cell-based
- RECORDED CONDITIONS: caco-2
pIC50: −log10 of the molar value.
MEASUREMENT LABEL: pIC50

Quick check: pIC50 of CC(=O)N[C@@H]1[C@@H](O)[C@H](O)[C@@H](CO)O[C@H]1O ?
< 0.30

Query (compound): OC[C@H]1OC(O)[C@@H](O)[C@@H](O)[C@@H]1O (stereo partly specified) ; field requested: pIC50
< 0.30

Any idea what its pIC50 is? The compound is CO[C@H]1O[C@H](CO)[C@@H](O)[C@H](O)[C@H]1O
< 0.30

So what's the measured pIC50 for this one? C[C@H](O)[C@@H](O)[C@@H](O)[C@H](O)C=O
< 0.30

Record request: pIC50 value, item OC[C@H]1O[C@@H](O)[C@H](O)[C@@H](O)[C@@H]1O
< 0.30

For O=[N+]([O-])c1ccc(O[C@H]2O[C@H](CO)[C@H](O)[C@H](O)[C@H]2O)cc1 , what is its reported pIC50?
1.60
